- System: SK-ES-1
- Experimental Details: relative viability vs DMSO control (72 h) (fraction); higher = more viable cells
- Condition Summary: 0.00051 µM
Property Name: relative viability
Lab note: write the figure by itself, no unit.

| Compound | relative viability |
| --- | --- |
| C[C@]1(O)C[C@@H](c2nc(-c3ccc4ccc(-c5ccccc5)nc4c3)c3c(N)nccn32)C1 [Linsitinib] | 1.05 |
| C=CC(=O)N1CCC[C@@H](n2nc(-c3ccc(Oc4ccccc4)cc3)c3c(N)ncnc32)C1 [Ibrutinib] | 1.02 |

Kindly review the next compound as well.
Input: Param item = CCc1cc2c(cc1N1CCC(N3CCOCC3)CC1)C(C)(C)c1[nH]c3cc(C#N)ccc3c1C2=O [Alectinib] ; retrieve measured relative viability.
Output: 1.04

Origin of the recorded values: the supplement of paper PMC10883282
